B1: HDV Ribozyme (parent)
chain: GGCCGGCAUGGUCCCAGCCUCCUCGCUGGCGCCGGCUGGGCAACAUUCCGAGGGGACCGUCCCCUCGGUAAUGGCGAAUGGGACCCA

# Variants of: B1
# Experiment: self-cleavage, relative activity (ratio to wild type); higher = more cleavage; co-transcriptional
Decision: self-cleavage >= 0.5 yields satisfied, all other cases yield not satisfied.

Input: Is the recorded value of self-cleavage equal to or greater than 0.5 for this variant? `GGCCGGCAUGGUCCCAGCCUCCUCGCUGGCGCCGGCUGGGCAACUUUCCGAUGGGACCGUCCCCUCGGUAAUGGCGAAUGGGACCCA`
Output: satisfied

Input: Does `GGCCGGCAUGGUCCCAGCCUCCUCGCUGGCGCCGGCUGGGCAACAUUCCGAGGGGACCGUCCCCUCGGUAAUCGCGAAUGGGCCCCA` have a reported self-cleavage of at least 0.5?
Output: not satisfied

Input: Would you say `GGCCGGCAUGGUCCCAGCCUCCUCGCUGGCGCCGGCUGGGCAACAUUCCGUGGGGACCGUCCCCUCGGUAAUGGCGAAGGGGACCCA` shows self-cleavage at minimum 0.5?
Output: satisfied

Input: Hello, I need to know if `GGCCGGCAUGGUCCGAGCCUCCUCGCUGGCGCCGGCUGGGCAACAUUCCGAGGGGACCGUCCCCUCGGGAAUGGCGAAUGGGACCCA` has measured self-cleavage not below 0.5. Thanks!
Output: not satisfied

Input: I'd appreciate it if you could say whether `GGCCGGCAUGGUCCCAGCCUCCUCGCUGGCGCCGUCUGGGCAACAUUCCGAGGGGACCGUCCCCUCGGUAAUGGUGAAUGGGACCCA` has self-cleavage at least equal to 0.5.
Output: not satisfied

Input: Hello, I need to know if `GGCCGGCAUGGUCCCAGCCUCCUCGCUGGCGCCGGCUGGGCAACAUUCCGAGGGGACCGUCCCCUCGGUAAGGGCGUAUGGGACCCA` has measured self-cleavage not below 0.5. Thanks!
Output: not satisfied

Input: Determine whether measured self-cleavage meets or exceeds 0.5 for `GGCCGGCAUGGUCCCAGCCUCCUCGCUGGCGCCGGCCGGGCGACAUUCCGAGGGGACCGUCCCCUCGGUAAUGGCGAAUGGGACCCA`
Output: satisfied

Input: Reported self-cleavage reaches at least 0.5 for `GGCCGGCAUGGACCCAGCCUCCUCGCUGGCGCCGGCUGGGCAACAUUCCGAGGGGACCGUCCCCUCGGUACUGGCGAAUGGGACCCA` ?
Output: not satisfied

Input: Decide: self-cleavage of `GGCCGGCAUGGUCCCAGCCUCCUCGCUGGCGCCGGCUGGGCAACAUUCCGAGGGGACCGUCUCCUCGGUAAUGGCGAAUGGGACUCA` >= 0.5?
Output: satisfied

Input: Given `GGCCGGCAUGGUCCCAGCCUCCUCGCGGGCGCCGGCUGGGCAACAUUCCGAGGGGACCGUCCCCUCGGUAAGGGCGAAUGGGACCCA` , state whether its self-cleavage is at least 0.5.
Output: satisfied

Input: Form field: self-cleavage at least 0.5? Entry: `GGCCGGCAUGGACCCAGCCUCCUCGCUGGCGCCGGCUUGGCAACAUUCCGAGGGGACCGUCCCCUCGGUAAUGGCGAAUGGGACCCA`
Output: not satisfied
